experiment: inhibitors of Clostridioides difficile proliferation – 4-point retest, confirmation (AID 1224921); conditions: Clostridioides difficile clinical isolate growth, OD600, 24 h, stronger effect = lower value; at 30 µM unless noted;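 also: plate controls were DMSO wells for no effect and levofloxacin 16 µg/mL wells for full effect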
Among all 1,400 compounds or so, about 350 (25%) were called active. Roughly 2% stayed inconclusive and do not appear here. These entries were drawn from the full list. Potency and affinity values are given separately.
OUTCOME MEASURE: max activity

# COMPOUND STRING, max activity
rows = [
    ("COCC(=O)Nc1ccc2c(c1)OC[C@@H](C)N(C(=O)c1ccccc1F)C[C@H](C)[C@@H](OC)CN(C)C2=O", "-10.4% [at 35 µM] (inactive)"),
    ("C[C@@H]1CN([C@@H](C)CO)C(=O)Cc2cc(NC(=O)Nc3ccc(C(F)(F)F)cc3)ccc2O[C@@H]1CN(C)Cc1ccccc1", "36.8% [at 35 µM] (inactive)"),
    ("C[C@H](CO)N1C[C@H](C)[C@@H](CN(C)Cc2ccccc2)Oc2ccc(NC(=O)Nc3cccc4ccccc34)cc2CC1=O", "21.6% (inactive)"),
    ("CCCNC(=O)Nc1ccc2c(c1)C(=O)N(C)C[C@@H](OC)[C@@H](C)CN(CC1CCCC1)[C@@H](C)CO2", "-4.03% [at 1.95 µM] (inactive)"),
    ("CO[C@H]1CN(C)C(=O)c2cc(NC(=O)c3ccccc3)ccc2OC[C@@H](C)N(C)C[C@H]1C", "10.4% (inactive)"),
]

Specify max activity for "CCCNC(=O)N(C)C[C@@H]1Oc2cc(C#Cc3cccc(F)c3)ccc2S(=O)(=O)N([C@H](C)CO)C[C@H]1C" and stop. 64.3% (inactive)

Specify max activity for "CC(C)(C)[S@](=O)N1Cc2cc(C(=O)NCc3ccc4c(c3)OCO4)nc(-c3cccc(-c4cccnc4)c3)c2[C@@H]1CCO" and stop. 32.4% [at 35 µM] (inactive)

Specify max activity for "CO[C@H]1CN(C)C(=O)c2cc(NS(=O)(=O)c3cn(C)cn3)ccc2OC[C@H](C)N(C)C[C@@H]1C" and stop. -7.09% [at 0.5 µM] (inactive)

Specify max activity for "Cc1noc(C)c1NC(=O)N[C@H]1CC[C@H](CC(=O)Nc2ccc(-c3ccccc3)cc2)O[C@H]1CO" and stop. 16% (inactive)

----------
Consider the following compounds and their measured max activity readings.
assay: inhibitors of Clostridioides difficile proliferation – 4-point retest, confirmation (AID 1224921); conditions: Clostridioides difficile clinical isolate growth, OD600, 24 h, stronger effect = lower value; at 30 µM unless noted;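 also: plate controls were DMSO wells for no effect and levofloxacin 16 µg/mL wells for full effect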
The campaign covered roughly 1,400 compounds. About 350 (25%) were called active. Roughly 2% stayed inconclusive and do not appear here. A selection follows. Potency and affinity values are given separately.

Worked examples, 5 compounds total:
# COMPOUND STRING, max activity
rows = [
    ("COc1cccc(NC(=O)N(C)C[C@H]2Oc3cc(C#CC4(O)CCCC4)ccc3S(=O)(=O)N([C@@H](C)CO)C[C@H]2C)c1", "-5.35% [at 0.5 µM] (inactive)"),
    ("CCc1cnc(N2[C@H](CO)[C@@H](c3ccc(C4=CCCCC4)cc3)[C@@H]2C#N)s1", "36.5% [at 0.5 µM] (inactive)"),
    ("N#C[C@H]1[C@@H](c2ccc(-c3ccccc3)cc2)[C@@H](CO)N1C(=O)Cc1ccncc1", "13.6% (inactive)"),
    ("CN(C)CCCNC(=O)[C@H]1[C@H](CO)[C@H]2Cn3c(ccc(-c4cccc(F)c4)c3=O)[C@@H]1N2C", "-8.59% (inactive)"),
    ("CC(C)C#Cc1ccc([C@@H]2[C@@H](CO)N(C(=O)c3cccc(F)c3)[C@H]2C#N)cc1", "15.2% (inactive)"),
]

Specify max activity for "CCCN1C[C@@H](C)[C@@H](OC)CN(C)C(=O)c2cc(NC(=O)c3cccc(F)c3)ccc2OC[C@@H]1C" and stop. -11.8% (inactive)

Specify max activity for "CCCN1C[C@H](C)[C@@H](OC)CN(C)C(=O)c2ccc(NC(=O)c3ccc(F)cc3)cc2OC[C@@H]1C" and stop. -10.8% [at 1.95 µM] (inactive)

Specify max activity for "N#C[C@H]1[C@@H](c2ccc(-c3ccc(F)cc3)cc2)[C@H](CO)N1C(=O)Cc1ccccc1" and stop. 29.3% [at 8 µM] (inactive)
